Tested on: SK-MEL-5 melanoma
ASSAY EXPLANATION: NCI tumour cell line growth inhibition, 48 h; in the data active means GI50 below about 0.43 µM; inactive means the rest
Thanks in advance; please answer with one of these: true (1) (active), false (0) (inactive)

Solved cases (2 shown):
Call for entry COc1ccc(-c2nc(-c3nc4ccc(Cl)cc4[nH]3)c3ccccn23)cc1 :
false (0)

Hey, what did the test say about O=C(O)/C=C(\c1nc2ccc([N+](=O)[O-])cc2[nH]1)c1cc(Cl)ccc1O ?
false (0)

Proceed to the following item.
Would you mind telling me which call this test gave CC/C=C\C[C@@H](O)C/C=C1/C(=O)C=C[C@H]1C/C=C\CCCC(=O)OC ?
false (0)
